# Tested on: SNB-19 CNS
# assay_procedure: NCI tumour cell line growth inhibition, 48 h; in the data active = GI50 below about 0.43 µM; inactive = the rest
Hello, when you answer, please use one of the following outcomes: active, inactive

Given Nc1ncnc2occ(-c3ccc(NC(=O)Nc4cc(C(F)(F)F)cc(C(F)(F)F)c4)cc3)c12 , state the outcome it received in this test.
inactive

Recorded call for O=C1c2cccnc2C(=O)c2c1c(C(=O)OCCCN1CCOCC1)c1ccccn21 ?
active

Query: recorded result category for CCOC(=O)c1[nH]c2c(c1C)-c1[nH]c(=O)c(S(=O)(=O)c3ccccc3)cc1SC2 in this test
inactive

Any idea what this test logged for COc1ccc(C2=CC(c3cc(OC)c(OC)c(OC)c3)n3ncnc3N2)cc1 (stereo not given) ?
active

Record lookup: outcome of this test for Cc1nn(-c2ccccc2)c2c1C1C(=C(c3ccc(Cl)cc3)N2)C(=O)Nc2ccccc21 (stereo not given) ?
inactive
